These measurements were taken from the DeepSol protein solubility set.

Assay: soluble on expression in E. coli; label from the status in PepcDB or PDB records
MEASURED METRIC: soluble on expression in E. coli

MTIFEKNVIEFVTVAAEFCAFLERAEHMKRKAFVDTSLKILPLLYLKASLLPKCETIGDEAPETYVTEEIYEILRINLAGLMGEKDDYLDVFVQDMVYSDQPIKKSVSEDLADIYQDIKDFIFVFQLGLNETMNDSLAICQENFGLLWGQKLVNTLRALHDVKYLEHHHHHH	soluble
MRTLLITGPGGSGRTTVAAATALRASRTGTRTLVLSADRTDTLGAALGVPTGGAPVEAAPGLTAWRPDAADRFRADLTAFQDRAATALDFLGAARLDAEELTPLPGAEELALLRALRDAALSEAYDLLVVDLPPAPQALALLALPEELRRYLRRLLPPERQAARALRPVLGRLAGVPMPADWLYETAARWDVELAAVEAVVEDRATTVRLVAEPGPAGADAVRAAATGFALRAVRIDTLIANRLLPEEADDAWSAGLAAQQRKFLEEWRGEYRLHELPHLGHDPRGADDLAALAVPGVNDAPGPVEWSVADRLADDGVLVWHIPLPGAIRDELDLLRRGDELVVTAGQFRRIVPLPSALRRCTVAGAALREGELRIRFAPDPDLWPRERLEHHHHHH	soluble
MDRVLSRADKERLLELLKLPRQLWGDFGRMQQAYKQQSLLLHPDKGGSHALMQELNSLWGTFKTEVYNLRMNLGGTGFQ	soluble
